Tested on: Staph. aureus SS 08
Format: cell-based
Study conditions: Brain Heart Infusion, estolate and RV11-RV15 previously hydrolized, unit assumed
Measurement kind: MIC
State the value with its unit after it.

CCC(=O)O[C@H]1[C@H](O[C@@H]2[C@@H](C)[C@H](O[C@H]3C[C@@](C)(OC)[C@@H](O)[C@H](C)O3)[C@@H](C)C(=O)O[C@H](CC)[C@@](C)(O)[C@H](O)[C@@H](C)C(=O)[C@H](C)C[C@@]2(C)O)O[C@H](C)C[C@@H]1N(C)C [erythromycin estolate, reference compound] | 0.025 µg/mL

Proceeding to the next molecule to report its MIC.
Give me measured MIC, please, for this molecule: CCC(=O)O[C@H]1[C@H](O[C@@H]2[C@@H](C)[C@H](O[C@H]3C[C@@](C)(OC)[C@@H](O)[C@H](C)O3)[C@@H](C)C(=O)O[C@H](CC)[C@@](C)(O)[C@H](O)[C@@H](C)C(=O)[C@H](C)C[C@@]2(C)O)O[C@H](C)C[C@@H]1N(C)C [RV15]
0.025 µg/mL
